Where do these numbers come from? They come from patent US9980943B2.

System: α7 integrin (LacZ reporter in α7+/LacZ myotubes)
Procedure text: Myotube α7 integrin FDG assay (Burkin assay in myotubes, 96-well)
Assay type: cell-based, mouse
Stated conditions: myotubes, 5 uM
Entries and their measured Burkin Assay in Myotubes, α7 integrin LacZ reporter signal relative to DMSO follow.
Parameter: Burkin Assay in Myotubes, α7 integrin LacZ reporter signal relative to DMSO

[[record]]
compound = "Nc1ncnc(NCc2ccccc2)c1[N+](=O)[O-]"
test_target = "α7 integrin (LacZ reporter in α7+/LacZ myotubes)"
reported_measurement = 1.08

[[record]]
compound = "CCCCNc1nnc(Cc2ccc(Cl)cc2)c(=O)[nH]1"
test_target = "α7 integrin (LacZ reporter in α7+/LacZ myotubes)"
reported_measurement = 0.863

[[record]]
compound = "CC(C)(C)n1cnc2cc(NC(=O)c3ccco3)ccc21"
test_target = "α7 integrin (LacZ reporter in α7+/LacZ myotubes)"
reported_measurement = 0.8636

[[record]]
compound = "O=C(Nc1ccccc1F)c1ccc([N+](=O)[O-])s1"
test_target = "α7 integrin (LacZ reporter in α7+/LacZ myotubes)"
reported_measurement = 1.059

[[record]]
compound = "Cc1ccccc1-n1c(Cc2cccs2)n[nH]c1=S"
test_target = "α7 integrin (LacZ reporter in α7+/LacZ myotubes)"
reported_measurement = 0.9642

[[record]]
compound = "N#CC1=C2SCN(c3ccccc3)CN2C(=O)CC1c1cccs1 (stereo not drawn)"
test_target = "α7 integrin (LacZ reporter in α7+/LacZ myotubes)"
reported_measurement = 0.9044

[[record]]
compound = "Cc1ccccc1NC(=O)c1ccc2c(O)c(S(=O)(=O)c3ccccc3)c(=O)[nH]c2c1"
test_target = "α7 integrin (LacZ reporter in α7+/LacZ myotubes)"
reported_measurement = 0.9575

[[record]]
compound = "COc1cc(NC(=O)OCc2ccccc2)c2ncccc2c1"
test_target = "α7 integrin (LacZ reporter in α7+/LacZ myotubes)"
reported_measurement = 0.8939

[[record]]
compound = "CC1CC(C)(C)NC(=S)N1CC(=O)N(C)Cc1ccccc1 (stereo not drawn)"
test_target = "α7 integrin (LacZ reporter in α7+/LacZ myotubes)"
reported_measurement = 1.043


---

Test system: α7 integrin (LacZ reporter in α7LacZ+/− myoblasts)
Procedure text: qHTS of the LOPAC library and MLSMR (online screen, α7LacZ+/− myoblasts)
Stated conditions: Mus musculus, Myoblast, 48 h, read-out: Activity at 38.30uM [%] **
Decision: activation at 38.3 µM >= 70% yields true (1), all other cases yield false (0).

[[record]]
compound = "Cc1cccc(OCc2nc(C#N)c(N3CCCC3)o2)c1 [Compound 2]"
test_target = "α7 integrin (LacZ reporter in α7LacZ+/− myoblasts)"
classification = "true (1)"

[[record]]
compound = "COc1ccc2oc(C[S+]([O-])c3ccccc3)c(C(=O)O)c2c1 (centres unmarked) [Compound 109]"
test_target = "α7 integrin (LacZ reporter in α7LacZ+/− myoblasts)"
classification = "true (1)"

[[record]]
compound = "c1ccc(CN2CCCC3(CCCN(Cc4nc(CC5CC5)no4)C3)C2)cc1 (centres unmarked) [Compound 200]"
test_target = "α7 integrin (LacZ reporter in α7LacZ+/− myoblasts)"
classification = "false (0)"

[[record]]
compound = "Cc1ccc(NC(=O)C2CCCCC2C(=O)O)cc1C (centres unmarked) [Compound 114]"
test_target = "α7 integrin (LacZ reporter in α7LacZ+/− myoblasts)"
classification = "true (1)"

[[record]]
compound = "COc1ccc(CNC(=O)COC(=O)CCc2c[nH]c3ccccc23)cc1 [Compound 184]"
test_target = "α7 integrin (LacZ reporter in α7LacZ+/− myoblasts)"
classification = "true (1)"

[[record]]
compound = "COc1ccccc1CNS(=O)(=O)c1ccc(Cl)s1 [Compound 103]"
test_target = "α7 integrin (LacZ reporter in α7LacZ+/− myoblasts)"
classification = "true (1)"

[[record]]
compound = "COC(=O)c1ccccc1NC(=O)c1cc[n+]([O-])cc1 [Compound 100]"
test_target = "α7 integrin (LacZ reporter in α7LacZ+/− myoblasts)"
classification = "false (0)"

[[record]]
compound = "Cc1cc(-c2ccccc2)n2nc(N)nc2n1 [Compound 127]"
test_target = "α7 integrin (LacZ reporter in α7LacZ+/− myoblasts)"
classification = "true (1)"

[[record]]
compound = "N=C(NOC(=O)COc1cc(Cl)c(Cl)cc1Cl)c1ccncc1 [Compound 125]"
test_target = "α7 integrin (LacZ reporter in α7LacZ+/− myoblasts)"
classification = "true (1)"

[[record]]
compound = "CCOc1ccccc1NC(=O)c1cccc2c1C(=O)N(C1CCCCC1)C2 [Compound 15]"
test_target = "α7 integrin (LacZ reporter in α7LacZ+/− myoblasts)"
classification = "true (1)"

[[record]]
compound = "COc1cc2c(cc1NC(=O)Cc1ccc(C)cc1)oc1ccccc12 [Compound 5]"
test_target = "α7 integrin (LacZ reporter in α7LacZ+/− myoblasts)"
classification = "true (1)"

[[record]]
compound = "CN(C#N)c1nccc(-c2cccs2)n1 [Compound 190]"
test_target = "α7 integrin (LacZ reporter in α7LacZ+/− myoblasts)"
classification = "true (1)"

[[record]]
compound = "COC(=O)c1ccc(C2C(C(=O)c3cc4ccccc4o3)=C(O)C(=O)N2CCN2CCOCC2)cc1 (centres unmarked) [Compound 141]"
test_target = "α7 integrin (LacZ reporter in α7LacZ+/− myoblasts)"
classification = "true (1)"

[[record]]
compound = "C/C(CC(=O)Nc1ccc(Cl)c(C(F)(F)F)c1)=N\\NC(=O)c1cnccn1 [Compound 38]"
test_target = "α7 integrin (LacZ reporter in α7LacZ+/− myoblasts)"
classification = "true (1)"

[[record]]
compound = "COCCSc1ccccc1C(=O)Nc1cc(C)cc(C)c1 [Compound 22]"
test_target = "α7 integrin (LacZ reporter in α7LacZ+/− myoblasts)"
classification = "true (1)"

[[record]]
compound = "Cc1cc(NC(=O)c2ccc(Cl)cc2Cl)no1 [Compound 19]"
test_target = "α7 integrin (LacZ reporter in α7LacZ+/− myoblasts)"
classification = "false (0)"

[[record]]
compound = "COc1ccccc1OCC(=O)N/N=C1/C=C(C)CC1 [Compound 185]"
test_target = "α7 integrin (LacZ reporter in α7LacZ+/− myoblasts)"
classification = "true (1)"


---

System: β-galactosidase in CMV-LacZ C2C12 myoblasts
Procedure text: CMV-LacZ secondary screen in C2C12 myoblasts (β-Gal stabilizing assay)
Format: cell-based, mouse
Stated conditions: 40 uM; CMV-LacZ C2C12 myoblasts
Parameter: CMV-LACZ in Myoblasts (β-galactosidase activity relative to DMSO)

[[record]]
compound = "N#Cc1nc(COc2ccccc2)oc1N1CCCC1 [MLS000036988-01]"
reported_measurement = 0.6578

[[record]]
compound = "CN1C(=O)N(CC(=O)N2CCN(S(=O)(=O)c3ccc(Cl)s3)CC2)C(=O)C12CCCCC2 [MLS002162890-01]"
reported_measurement = 0.9507

[[record]]
compound = "Cc1ccccc1NC(=O)c1ccc2c(O)c(S(=O)(=O)c3ccccc3)c(=O)[nH]c2c1 [MLS001122698-01]"
reported_measurement = 1.0639

[[record]]
compound = "Cc1ccc(NS(=O)(=O)c2cccc(C(=O)O)c2)cc1S(=O)(=O)N1CCOCC1 [MLS000393966-01]"
reported_measurement = 0.9156

[[record]]
compound = "CCCS(=O)(=O)c1nc(S(=O)(=O)c2ccc(C)cc2)c(N2CCCC2)s1 [MLS000113985-01]"
reported_measurement = 0.1841

[[record]]
compound = "COc1ccc(C(=O)Nc2ccc(Cl)cn2)cc1Cl [MLS000089748-01]"
reported_measurement = 0.4437

[[record]]
compound = "O=C(NCCc1ccc(Cl)cc1)C1CCCO1 (stereo not drawn) [MLS001198271-01]"
reported_measurement = 1.2089

[[record]]
compound = "O=C(NCCc1ccccc1)C1CCC(=O)N1C1CCCC1 (stereo not drawn) [MLS001200665-01]"
reported_measurement = 0.9937

[[record]]
compound = "CC(=O)Nc1ccc(NC(=O)c2cc(=O)c3cc(C)cc(C)c3o2)cc1 [MLS001200396-01]"
reported_measurement = 0.9011

[[record]]
compound = "COC(=O)c1ccc(N=Nc2ccccc2)cc1 [MLS001005712-01]"
reported_measurement = 1.0230

[[record]]
compound = "CCc1nc2ccccc2c(C(=O)NCc2ccccc2)c1C [MLS000688267-01]"
reported_measurement = 1.0774

[[record]]
compound = "COc1cc(NC(=O)OCc2ccccc2)c2ncccc2c1 [MLS002667707-01]"
reported_measurement = 1.1226

[[record]]
compound = "CN(/C(=N/S(=O)(=O)c1cccs1)c1ccccc1)c1ccccc1 [MLS000582947-01]"
reported_measurement = 0.8819

[[record]]
compound = "Cc1cc(OCC(=O)NC(C)C)ccc1Cl [MLS000684034-01]"
reported_measurement = 0.3100

[[record]]
compound = "CCOc1ccccc1NC(=O)c1cccc2c1C(=O)N(C1CCCCC1)C2 [MLS000912726-01]"
reported_measurement = 1.0643

[[record]]
compound = "CCC(CC)C(=O)Nc1c(C(=O)N2CCN(c3ccccc3)CC2)oc2ccccc12 [MLS001116079-01]"
reported_measurement = 0.9078

[[record]]
compound = "COc1ccccc1CC(=O)Nc1cc(S(=O)(=O)N2CCOCC2)ccc1N1CCOCC1 [MLS002170630-01]"
reported_measurement = 0.7387

[[record]]
compound = "NC(=O)c1sc2nc3c(cc2c1N)CCC3 [MLS000707378-01]"
reported_measurement = 0.6548

[[record]]
compound = "O=c1[nH]c(SCc2ccc(Cl)cc2)nc2ccsc12 [MLS000755214-01]"
reported_measurement = 0.8172

[[record]]
compound = "c1ccc(-c2cc(-c3nc4ccccc4[nH]3)c3ccccc3n2)cc1 [MLS000554416-01]"
reported_measurement = 0.8611

[[record]]
compound = "O=C1Nc2ccccc2/C1=C/c1ccccc1F [MLS001202389-01]"
reported_measurement = 0.5081

[[record]]
compound = "CC(=O)Nc1ccc(NC(=O)C/C(C)=N/NC(=O)COc2cc(C)c(Br)cc2Br)cc1 [MLS000912562-01]"
reported_measurement = 0.8747

[[record]]
compound = "O=C(COc1ccc(Cl)cc1)N1CCN(C2CCCC2)CC1.O=C(O)C(=O)O [MLS001221318-01]"
reported_measurement = 1.5641

[[record]]
compound = "CC(C(=O)Nc1ccc(C#N)cc1)N(C)CC(=O)Nc1cccc(F)c1 (stereo not drawn) [MLS001033255-01]"
reported_measurement = 0.7905

[[record]]
compound = "O=C(CSc1nnc2c(n1)[nH]c1ccccc12)NCc1ccccc1F [MLS001225512-01]"
reported_measurement = 1.0111

[[record]]
compound = "O=c1c2cc(-c3ccccc3)sc2nc2n1N=C(c1ccccc1)CS2 [MLS000858981-01]"
reported_measurement = 0.9696

[[record]]
compound = "O=C(Nc1ccccc1OC(=O)c1ccc(Cl)cc1)c1ccc(Cl)cc1 [MLS000573208-01]"
reported_measurement = 0.9289

[[record]]
compound = "CCOC(=O)c1nnn(-c2nonc2OC)c1-c1ccccc1 [MLS000045588-01]"
reported_measurement = 1.2167

[[record]]
compound = "COC(=O)c1ccccc1NC(=O)CSc1nc(O)c(-c2ccccc2)c(=O)[nH]1 [MLS000621451-01]"
reported_measurement = 1.1926

[[record]]
compound = "Cc1cc(C)cc(OCC(=O)N/N=C/c2ccccn2)c1 [MLS000710669-01]"
reported_measurement = 0.8778

[[record]]
compound = "O=C1CCC(C(=O)N2CCSCC2)CN1Cc1ccc(Cl)cc1 (stereo not drawn) [MLS001090787-01]"
reported_measurement = 0.5907

[[record]]
compound = "CCOc1ccccc1Nc1cc2n(c(=O)n1)CCc1cc(OC)c(OC)cc1-2 [MLS001215294-01]"
reported_measurement = 0.4116

[[record]]
compound = "CCCCNc1nnc(Cc2ccc(Cl)cc2)c(=O)[nH]1 [MLS001215795-01]"
reported_measurement = 0.8256

[[record]]
compound = "Cc1ccsc1-c1n[nH]c(=S)n1C1CCCCC1 [MLS000698617-01]"
reported_measurement = 1.0356

[[record]]
compound = "CC1CCN(C(CNS(=O)(=O)c2ccccc2)c2ccccc2)CC1 (stereo not drawn) [MLS002171615-01]"
reported_measurement = 0.6726

[[record]]
compound = "CN(CCC1CCCCO1)C(=O)CCc1nnc(CCCCc2ccccc2)o1 (stereo not drawn) [MLS000735021-01]"
reported_measurement = 0.9767

